Test system: DU-145 prostate
Test: NCI tumour cell line growth inhibition, 48 h
READOUT LABEL: TGI

Just so you know, measured TGI for `O=c1cc(C(F)(F)F)c2cc3c(cc2o1)NCCC3` came out at > 100 µM

What the record says about C/C=C\C(CC(=O)NCCc1c[nH]c2ccccc12)CC(=O)OC (stereo unspecified) : TGI is > 100 µM

Consider `O=C(O)C(=Cc1ccnc2ccccc12)C(=O)O` . Its measured TGI is > 100 µM

Note to self: TGI recorded for `OCc1cn(Cc2cccc(Cl)c2)c2ccccc12` was 47.8 µM

Per the records, this compound ( CCC1(O)CC(O)c2c(O)c3c(c(O)c2C1C(=O)OC)C(=O)c1cccc(O)c1C3=O (stereo unspecified) ) has TGI equal to 21.8 µM

// field: TGI; key: OCC1c2ccccc2-n2nc(-c3ccccc3)c(O)c21 (stereo unspecified) ; value = > 100 µM

---

Tested on: HS 578T breast
Test: NCI tumour cell line growth inhibition, 48 h
READOUT LABEL: TGI

TGI reading for CC1Cc2c(cc(N)nc2Br)NC1=O (stereo unspecified) : > 100 µM

The molecule CCOC(=O)NC(OCc1ccccc1)(C(=O)OC)C(F)(F)F (stereo unspecified) showed TGI equal to > 100 µM

Measured TGI, `CCn1c(SCc2nnc(Nc3ccccc3)s2)nc2ccccc2c1=O` : 8.56 µM

TGI measured on `CC(C)(C)C(=O)O[C@H]1C=C[C@@H](O)[C@@H]2[C@H]1[C@@H]1C=C[C@H]2C1` = > 100 µM

// sample `c1cc2c3c(c1)[C@@H]1O[C@@H]1c1cccc(c1-3)[C@@H]1O[C@H]21` , its TGI was 40 µM

Recorded result, `Cc1cc2nc3c(N)nn(CCN(C)C)c3nc2cc1C` , TGI: > 100 µM

---

Provide the recorded GI50 for the entries that follow.
System: BT-549 breast
Test: NCI tumour cell line growth inhibition, 48 h

Item `c1ccc(Cc2nc3ccc(Nc4ncnc5ccccc45)cc3[nH]2)cc1` was tested on BT-549 breast; the reported GI50 is > 25 µM

So the reported GI50 for `C#Cc1cccc(Nc2ncnc3cc(OCCOC)c(OCCOC)cc23)c1` , on BT-549 breast, turned out to be 33.4 µM

Record for COP(=O)(OC)C(NC(c1ccccc1)c1ccccc1)c1ccc2c(c1)OCO2 (stereo not given) under target or system BT-549 breast: GI50 reported as 20.6 µM

Reported GI50 (BT-549 breast) for entry CCOP(=O)(OCC)C(NC(c1ccccc1)c1ccccc1)c1ccccc1 (stereo not given) is 15.4 µM

Form field, GI50 with BT-549 breast, item CC12CCC3C(CC=C4CC(O)CCC43C)C1C/C(=C\N1CCCC1)C2=O (stereo not given) : 41 µM

---

Kindly supply the reported TGI values for the records listed here.
System: MALME-3M melanoma
Assay: NCI tumour cell line growth inhibition, 48 h

The reported MALME-3M melanoma TGI of CCCC(CC)c1cc(O)c(O)cc1C(CC)CCC (stereo not drawn) is > 10 µM

Record CCCOC1OC(CS(=O)(=O)O)C(OC(C)=O)C(OC(C)=O)C1OC(C)=O (stereo not drawn) / MALME-3M melanoma, TGI recorded as > 100 µM

Reported MALME-3M melanoma TGI for item `Cc1ccc(Cl)c2c(=O)cc(-c3ccccc3)[nH]c12` was > 100 µM

Reading of TGI for `OCc1cn(Cc2cccc(Cl)c2)c2ccccc12` with MALME-3M melanoma: 30.6 µM

Kindly note: MALME-3M melanoma, `CC(=O)OC[C@H]1O[C@@H](n2ccc(=O)[nH]c2=O)[C@H](OC(C)=O)[C@@H]1OC(C)=O` , TGI value reported: > 100 µM

For `CC1=C(/C=C/C(C)=C\C=C\C(C)=C\C(=O)Nc2ccc3c(c2)OCO3)C(C)(C)CCC1` on MALME-3M melanoma, measured TGI was > 100 µM

Entry CC(O)/C=C/C(CCC(C)CO)C(C)C (stereo not drawn) : TGI on MALME-3M melanoma = > 100 µM

Measured TGI (MALME-3M melanoma), entry `Cn1c(O)c(/C=N/c2ncccn2)c(=O)[nH]c1=O` : > 100 µM

Param item: COC(=O)C1=C(C)N(NC(N)=O)C2(N)N(NC(N)=O)C(C)=C(C(=O)OC)C12C(=O)OC (stereo not drawn) ; param system: MALME-3M melanoma; output TGI: > 100 µM

// TGI (MALME-3M melanoma) for `OCCCCC#Cc1ccccc1C#Cc1ccccc1` = 32.1 µM

With MALME-3M melanoma as the test system, `C/C(=N\NC(=O)c1ccncc1)c1cccc(C(F)(F)F)c1` showed TGI of > 10 µM

Log: MALME-3M melanoma, molecule `COc1ccc(/C=N/N=C(\N)NO)cc1OC` , TGI = > 100 µM

`COCCn1cc(-c2csc(-c3c[nH]c4ccccc34)n2)c2cccnc21` tested on MALME-3M melanoma gave TGI: > 100 µM

Per the reported MALME-3M melanoma data, `c1cc2c3c(c1)[C@@H]1O[C@@H]1c1cccc(c1-3)[C@@H]1O[C@H]21` has TGI of 29.6 µM

The recorded TGI with MALME-3M melanoma for CC(=O)NCC1OC2COC(c3ccccc3)OC2C2N=C(c3ccccc3)OC12 (stereo not drawn) was > 100 µM

Bench note, MALME-3M melanoma: `c1ccc(Cc2nc3ccc(Nc4ncnc5ccccc45)cc3[nH]2)cc1` , TGI reads > 25 µM

Record `Nc1cc2ncnc(Nc3cccc(Br)c3)c2cn1` / MALME-3M melanoma, TGI recorded as > 100 µM

The recorded TGI with MALME-3M melanoma for `C/C(O)=C(\N=O)C(=O)NCCc1ccccc1` was > 100 µM

Item: `Cc1cn([C@@H]2C[C@](C)(CO)N(C)O2)c(=O)[nH]c1=O` | System: MALME-3M melanoma | TGI: > 100 µM

MALME-3M melanoma data for `Oc1ccc(Cc2ccc(O)c3ncccc23)c2cccnc12` ; its TGI: > 100 µM

Param item: `C/C(=N/S(=O)(=O)c1ccc(Cl)c(Cl)c1)OCC(C)(C)C` ; param system: MALME-3M melanoma; output TGI: > 100 µM

Result for COC(=O)c1c(C)cccc1C1CN=NC12Cc1cccc(C)c1C2=O (stereo not drawn) , tested on MALME-3M melanoma, TGI: 87.2 µM

Let me check: `O=C(O)c1cc2ccccc2c(O)c1O` , system MALME-3M melanoma, measured TGI is 3.78 µM

---

Provide the reported TGI of each item.
Test system: SK-MEL-28 melanoma
Assay: NCI tumour cell line growth inhibition, 48 h

Recorded TGI (molecule `C=C1C(=O)O[C@H]2[C@H]1CC/C(COC(=O)NCc1cc3ccccc3[nH]1)=C\CC[C@@]1(C)O[C@@H]21` ): 3.36 µM

TGI recorded for this molecule, `Cc1cc(C)c(C#N)c(SC(=S)NC(=O)c2ccccc2)n1` , is > 100 µM

Record summary for `COc1ccccc1-[n+]1cc(-c2ccc(-c3ccccc3)cc2)n2c1CCCCC2` : reported TGI = 11.2 µM

So for `OC1(C(O)(c2ccc(-c3ccccc3)cc2)c2ccc(-c3ccccc3)cc2)CCCCC1` , the logged TGI turned out to be > 100 µM

Note to self: TGI recorded for `CN(C)CCCn1c2c(c3cnccc3c1=O)C(=O)c1ccccc1-2` was 2.59 µM

Sure, the documented TGI for `O=C(/C=C/c1cccnc1)NCCCCC1CCN(C(=O)c2ccccc2)CC1` is > 100 µM

# molecule `C=C1[C@@H](C)[C@H]2[C@H](Cc3ccccc3)NC(=O)[C@]23OC(=O)/C=C/[C@H](O)CCC[C@@H](C)C/C=C/[C@H]3[C@@H]1O` ; its TGI = > 100 µM

Item: `CCN(CC)c1ccc(/C=C\c2cc(C)c3cc(C)ccc3n2)cc1` | TGI: > 100 µM

Query `O=C1/C(=C/c2cccs2)N=C(c2ccccc2)N1c1nc2ccccc2s1` yields TGI of > 100 µM

# TGI of `CC(C)Oc1cc2c(cc1O)CC[C@@H]1[C@@H]2CC[C@]2(C)[C@@H](O)CC[C@@H]12` = 56.6 µM

Per the records, this molecule ( `Cc1sc2nc3n(sc4nc5sc(C)c(C)c5c(=O)n43)c(=O)c2c1C` ) has TGI equal to > 100 µM

TGI in this record for `COc1ccccc1NC(=O)CSC(N)=O` : > 100 µM

Given item OCC1c2ccccc2-n2nc(-c3ccccc3)c(O)c21 (configuration not stated) , the value recorded as its TGI is > 100 µM

Record CC(=O)NC1C(OCc2ccccc2)OC(CO)C(O)C1OCC(=O)N[C@@H](C)C(=O)N[C@H](CCC(=O)NCCCCNc1c2ccccc2nc2cccc([N+](=O)[O-])c12)C(N)=O (some centres not stated) . Reported TGI: 23.4 µM

Query `CCn1c(SCc2nnc(Nc3ccccc3)s2)nc2ccccc2c1=O` yields TGI of 60.8 µM

Given item `O=C(O)CNc1c2ccccc2nc2ccccc12` , the value recorded as its TGI is > 100 µM

Sure, the documented TGI for `Nc1ccc2c(SCCSc3c4ccccc4nc4cc(N)ccc34)c3ccccc3nc2c1` is > 100 µM
